Measured IC50 of individual entries
system-under-test: Histone acetyltransferase p300/Myocyte-specific enhancer factor 2D (Homo sapiens, UniProt Q09472+Q14814)
Sequence (Q09472 whole entry, the tested form may be a part): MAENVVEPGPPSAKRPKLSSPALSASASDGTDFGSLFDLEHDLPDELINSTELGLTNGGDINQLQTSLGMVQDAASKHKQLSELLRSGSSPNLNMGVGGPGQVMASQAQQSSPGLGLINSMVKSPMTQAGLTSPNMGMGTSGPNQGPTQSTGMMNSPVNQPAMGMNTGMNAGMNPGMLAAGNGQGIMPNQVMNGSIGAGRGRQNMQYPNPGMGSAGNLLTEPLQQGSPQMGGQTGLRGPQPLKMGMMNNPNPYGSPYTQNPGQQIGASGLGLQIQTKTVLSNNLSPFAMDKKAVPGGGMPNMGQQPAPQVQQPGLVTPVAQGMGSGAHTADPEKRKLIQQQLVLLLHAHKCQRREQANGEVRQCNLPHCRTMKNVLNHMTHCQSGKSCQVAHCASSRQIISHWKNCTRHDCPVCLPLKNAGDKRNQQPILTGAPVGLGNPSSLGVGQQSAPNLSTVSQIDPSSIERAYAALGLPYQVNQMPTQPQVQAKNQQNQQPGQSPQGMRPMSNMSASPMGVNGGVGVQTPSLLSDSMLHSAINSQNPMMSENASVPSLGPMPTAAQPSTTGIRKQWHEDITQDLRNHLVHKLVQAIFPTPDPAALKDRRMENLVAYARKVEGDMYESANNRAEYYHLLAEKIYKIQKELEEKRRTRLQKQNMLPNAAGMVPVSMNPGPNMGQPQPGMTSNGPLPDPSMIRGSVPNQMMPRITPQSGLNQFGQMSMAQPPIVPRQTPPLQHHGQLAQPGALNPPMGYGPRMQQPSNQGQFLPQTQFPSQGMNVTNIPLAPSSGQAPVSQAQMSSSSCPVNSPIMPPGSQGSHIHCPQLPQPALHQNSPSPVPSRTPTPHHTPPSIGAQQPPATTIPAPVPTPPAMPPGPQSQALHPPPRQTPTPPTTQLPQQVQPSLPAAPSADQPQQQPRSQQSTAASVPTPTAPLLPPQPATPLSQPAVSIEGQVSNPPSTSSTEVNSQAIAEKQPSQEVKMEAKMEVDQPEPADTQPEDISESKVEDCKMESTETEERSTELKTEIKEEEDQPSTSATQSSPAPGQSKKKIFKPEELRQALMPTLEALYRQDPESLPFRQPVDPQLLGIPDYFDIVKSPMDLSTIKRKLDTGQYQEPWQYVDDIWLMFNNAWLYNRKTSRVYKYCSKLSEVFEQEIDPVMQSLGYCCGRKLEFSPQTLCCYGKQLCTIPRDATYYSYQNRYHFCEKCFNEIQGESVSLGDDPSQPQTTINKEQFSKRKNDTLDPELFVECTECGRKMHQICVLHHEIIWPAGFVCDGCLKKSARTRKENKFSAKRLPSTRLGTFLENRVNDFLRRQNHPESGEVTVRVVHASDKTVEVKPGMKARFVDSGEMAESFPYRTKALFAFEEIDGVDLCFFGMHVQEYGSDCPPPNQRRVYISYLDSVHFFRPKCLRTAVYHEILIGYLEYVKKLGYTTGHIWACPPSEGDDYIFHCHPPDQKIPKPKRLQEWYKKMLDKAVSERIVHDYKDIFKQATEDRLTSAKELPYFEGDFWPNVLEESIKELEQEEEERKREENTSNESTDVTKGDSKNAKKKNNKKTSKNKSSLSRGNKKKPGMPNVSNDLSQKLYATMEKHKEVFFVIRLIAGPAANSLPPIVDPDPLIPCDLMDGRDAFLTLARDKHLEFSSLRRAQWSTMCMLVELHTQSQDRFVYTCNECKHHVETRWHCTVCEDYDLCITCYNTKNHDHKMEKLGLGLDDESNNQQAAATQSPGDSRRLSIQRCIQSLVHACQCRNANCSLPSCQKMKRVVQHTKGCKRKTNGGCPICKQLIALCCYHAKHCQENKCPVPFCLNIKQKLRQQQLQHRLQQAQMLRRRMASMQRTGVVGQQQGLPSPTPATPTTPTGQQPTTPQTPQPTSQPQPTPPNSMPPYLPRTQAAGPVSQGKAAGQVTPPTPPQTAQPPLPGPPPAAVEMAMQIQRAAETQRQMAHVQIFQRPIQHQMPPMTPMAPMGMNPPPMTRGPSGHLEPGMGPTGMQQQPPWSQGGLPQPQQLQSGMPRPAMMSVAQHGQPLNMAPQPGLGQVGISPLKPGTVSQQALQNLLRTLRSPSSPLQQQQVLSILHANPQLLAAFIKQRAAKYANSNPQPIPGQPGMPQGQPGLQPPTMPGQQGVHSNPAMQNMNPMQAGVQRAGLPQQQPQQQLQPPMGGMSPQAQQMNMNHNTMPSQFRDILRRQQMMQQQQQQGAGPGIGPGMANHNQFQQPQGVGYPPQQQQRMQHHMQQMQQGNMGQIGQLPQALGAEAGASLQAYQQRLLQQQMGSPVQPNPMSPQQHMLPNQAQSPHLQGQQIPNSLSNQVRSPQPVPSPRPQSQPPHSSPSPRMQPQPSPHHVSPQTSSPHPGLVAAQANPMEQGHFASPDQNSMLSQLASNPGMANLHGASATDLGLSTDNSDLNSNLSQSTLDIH
Sequence (Q14814 whole entry, the tested form may be a part): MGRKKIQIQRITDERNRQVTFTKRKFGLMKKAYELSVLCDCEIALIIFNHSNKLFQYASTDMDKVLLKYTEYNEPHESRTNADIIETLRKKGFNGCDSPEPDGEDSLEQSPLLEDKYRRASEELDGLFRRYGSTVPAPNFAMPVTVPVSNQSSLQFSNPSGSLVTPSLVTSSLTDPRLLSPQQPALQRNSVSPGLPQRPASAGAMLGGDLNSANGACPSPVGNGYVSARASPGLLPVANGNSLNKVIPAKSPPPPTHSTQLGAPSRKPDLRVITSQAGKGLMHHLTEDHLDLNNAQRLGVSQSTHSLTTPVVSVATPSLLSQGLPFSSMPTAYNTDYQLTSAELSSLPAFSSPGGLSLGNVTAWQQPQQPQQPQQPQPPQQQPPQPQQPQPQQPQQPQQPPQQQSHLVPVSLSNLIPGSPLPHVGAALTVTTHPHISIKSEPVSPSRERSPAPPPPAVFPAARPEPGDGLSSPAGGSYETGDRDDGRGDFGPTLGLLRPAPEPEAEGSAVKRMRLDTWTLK
assay-details: Inhibitory Effects of the Compounds on MEF2D and P300 Protein Interactions: Detection of MEF2D and P300 interactions. The same system that was used in Example 19 is used in here to detect MEF2D and P300 interactions. In this assay, two separate DNA constructs were made with MEF2D fused with the GAL4 DNA binding domain (GAL4-MEF2D) and P300 fused with the viral transactivator VP-16 […] epithelial carcinoma cells (HeLa) were co-transfected with the two DNA constructs (GAL4-MEF2D and P300-VP16) and a reporter plasmid (Gal4Luc). […] MEF2D and P300 protein interactions were detected as a result of the GAL4-MEF2D and P300-VP16 protein complex binding a DNA promoter on the reporter plasmid (Gal4Luc) and driving cellular expression of a luciferase gene. The measured luciferase protein signal was proportional to the amount of MEF2D and P300 protein interactions occurring with the cell.
measurement-kind: IC50 (nM)

{"columns": ["compound", "measurement-kind", "value"],
 "data": [
  ["Nc1ccccc1NC(=O)/C=C/c1cccc(CNc2ccc3ccccc3c2)c1", "IC50", 720],
  ["Cc1[nH]c2ccccc2c1CCNCc1cccc(/C=C/C(=O)Nc2ccccc2N)c1", "IC50", 270],
  ["Nc1ccccc1NC(=O)CCCCC(NC(=O)c1ccccc1)C(=O)Nc1ccccc1 (stereo not drawn)", "IC50", 700]
]}

# credit: ChEMBL document CHEMBL5728939
